# Test system: SB.msgc-1
# experiment.summary: AC50 for growth inhibition (viability) (log10 M); higher = less potent
# setup.conditions: SB.msgc-1 (sporadic gastric cancer)
Structures can show the parent of a compound that is named as a salt.
# note: exactly -5 is not below, so it is 0 (no); use 1 (yes) for AC50 for growth inhibition (log10 M) strictly under it

Answered cases to consult:
Cn1cnc(N)c2ncnc1-2	1 (yes)
Clc1ccccc1C(c1ccccc1)(c1ccccc1)n1ccnc1	0 (no)
FC1=C(C=C(C\C2=N\NC(=O)C3=C2C=CC=C3)C=C1)C(=O)N4CCN(CC4)C(=O)C5CC5	0 (no)
Cn1cnc([N+](=O)[O-])c1Sc1ncnc2nc[nH]c12	1 (yes)
CN1CCCC(CC1)N2\N=C(CC3=CC=C(Cl)C=C3)/C4=C(C=CC=C4)C2=O (stereo not drawn) [Azelastine hydrochloride]	1 (yes)

Strictly below -5 in AC50 for growth inhibition (log10 M)? CC(C)C1=N[N](C\2=C1C(=O)N\C(=N2)CC3=CC=C(OCCO)C=C3)C4=C(Cl)C=CC=C4Cl
1 (yes)

Same again, this time with C[C@H](Cc1ccc(O)c(O)c1)[C@@H](C)Cc1ccc(O)c(O)c1
0 (no)

Same again, this time with COc1ccc(-c2ccc3cc(C(=O)O)ccc3c2)cc1C12CC3CC(CC(C3)C1)C2
1 (yes)
